Test system: P388 murine leukemic cell line
Protocol description: In vitro growth inhibition (MTT), P388 leukemia
Format: cell-based
Assay setup: 3 days
Observation type: IC50 (nM)
Give just the numeric value; nM need not be written.

-- ask Reported IC50, compound O=C1c2cccc3cc([N+](=O)[O-])cc(c23)C(=O)N1CCNCCS(=O)(=O)CCN1C(=O)c2cccc3cc([N+](=O)[O-])cc(c23)C1=O [Compound 15] : ____
-- reply 29.9

###

Test system: poly (dG.dC) - poly (dG.dC)
Protocol description: Ethidium bromide displacement, poly(dG.dC)-poly(dG.dC)
Assay type: binding
Assay setup: FI50 poly(dA.dT)-poly(dA.dT) / FI50 poly(dG.dC)-poly(dG.dC)
Field: label. Allowed values: yes (1) (Ratio (AT/GC) < 60) or no (0) (Ratio (AT/GC) >= 60).

-- ask Record O=C1c2cccc3cc([N+](=O)[O-])cc(c23)C(=O)N1CCNCC[S+]([O-])CCN1C(=O)c2cccc3cc([N+](=O)[O-])cc(c23)C1=O (centres unmarked) [Compound 12] : is its Ratio (AT/GC) strictly below 60?
-- reply yes (1)

-- ask Same read-out for `O=C1c2cccc3cc([N+](=O)[O-])cc(c23)C(=O)N1CCNCCNCCN1C(=O)c2cccc3cc([N+](=O)[O-])cc(c23)C1=O` ?
-- reply yes (1)

-- ask Let us now turn to `O=C1c2cccc3cc([N+](=O)[O-])cc(c23)C(=O)N1CCOCCOCCN1C(=O)c2cccc3cc([N+](=O)[O-])cc(c23)C1=O`
-- reply yes (1)

-- ask Note, next up: `C[C@H](CNCCNC[C@@H](C)N1C(=O)c2cccc3cc([N+](=O)[O-])cc(c23)C1=O)N1C(=O)c2cccc3cc([N+](=O)[O-])cc(c23)C1=O`
-- reply yes (1)

-- ask Again, but for `O=C1c2cccc3cc([N+](=O)[O-])cc(c23)C(=O)N1CCNCCSCCN1C(=O)c2cccc3cc([N+](=O)[O-])cc(c23)C1=O`
-- reply yes (1)
